- tested-on: native mouse MET on living cells (mouse, UniProt P16056 25-1379)
- assay-notes: cell-based or functional assay
reported-metric: protection from staurosporine-induced apoptosis EC50, MLP29 cells (nM)
Only the number, expressed in nM, is required.

76G7 chimeric llama-human IgG1 mAb (antibody, V domains shown, human IgG1 CH1-CH2-CH3 and human CL lambda) VH: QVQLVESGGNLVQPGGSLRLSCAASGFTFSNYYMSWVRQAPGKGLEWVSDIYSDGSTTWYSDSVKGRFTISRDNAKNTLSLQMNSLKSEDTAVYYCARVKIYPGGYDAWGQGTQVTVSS VL: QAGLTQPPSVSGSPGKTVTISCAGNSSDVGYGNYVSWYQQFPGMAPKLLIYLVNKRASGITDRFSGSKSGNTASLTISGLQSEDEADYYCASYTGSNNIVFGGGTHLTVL	30.1

Kindly consider the entry below.
Inquiry: Look up protection from staurosporine-induced apoptosis EC50, MLP29 cells for this binder: 71D6 chimeric llama-human IgG1 mAb (antibody, V domains shown, human IgG1 CH1-CH2-CH3 and human CL lambda; also called 71D6 Human IgG1/lambda) VH: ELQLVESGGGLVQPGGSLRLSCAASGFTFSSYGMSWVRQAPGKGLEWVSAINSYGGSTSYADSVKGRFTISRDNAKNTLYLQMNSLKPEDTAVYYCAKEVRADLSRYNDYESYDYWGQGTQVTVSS VL: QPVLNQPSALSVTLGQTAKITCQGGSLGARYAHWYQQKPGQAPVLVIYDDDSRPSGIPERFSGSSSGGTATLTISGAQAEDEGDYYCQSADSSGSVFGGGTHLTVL
Reply text: 0.95
